# ASSAY SYSTEM: T1, cynomolgus monkey BCMA (cynomolgus monkey, UniProt A0A2K5UD97 1-53)
# T1 construct: Soluble analyte in SPR; construct not described; also called cyBCMA; Cyno BCMA
# T1 sequence (A0A2K5UD97 entry or part of it): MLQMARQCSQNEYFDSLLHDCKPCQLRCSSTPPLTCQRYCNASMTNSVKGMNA
# TEST PROTOCOL: SPR, IgG on chip, cyBCMA analyte, 37C
Assign koff to each entry below.
Field: numeric (s⁻¹). Do not append units.

Ask: Entry under review: L3.PY/L3.KF/H3.TAQ (antibody, V domains shown, IgG) VH: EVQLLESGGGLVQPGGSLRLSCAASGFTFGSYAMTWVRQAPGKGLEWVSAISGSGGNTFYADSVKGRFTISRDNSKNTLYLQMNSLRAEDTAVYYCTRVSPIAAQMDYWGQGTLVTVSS VL: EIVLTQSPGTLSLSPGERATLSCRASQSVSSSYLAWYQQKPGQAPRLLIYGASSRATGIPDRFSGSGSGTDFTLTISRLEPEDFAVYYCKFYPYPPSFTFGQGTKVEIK . Reported koff?
Result: 0.00191

Ask: What value of koff has been reported for the following binder? L3.PY/L1.PH/H3.TAQ (antibody, V domains shown, IgG) VH: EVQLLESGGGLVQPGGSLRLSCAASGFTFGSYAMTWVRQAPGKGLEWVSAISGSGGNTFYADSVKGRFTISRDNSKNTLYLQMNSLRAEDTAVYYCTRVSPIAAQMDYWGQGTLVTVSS VL: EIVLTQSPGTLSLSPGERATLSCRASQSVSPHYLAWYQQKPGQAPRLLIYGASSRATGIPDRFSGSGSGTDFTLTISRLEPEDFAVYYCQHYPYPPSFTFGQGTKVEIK
Result: 0.0032

Ask: // koff lookup, key: L3.PY/L1.FF/H3.TAQ (antibody, V domains shown, IgG) VH: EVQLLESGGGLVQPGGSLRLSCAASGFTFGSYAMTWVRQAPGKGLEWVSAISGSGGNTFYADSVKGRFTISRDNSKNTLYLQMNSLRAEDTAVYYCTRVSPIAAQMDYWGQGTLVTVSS VL: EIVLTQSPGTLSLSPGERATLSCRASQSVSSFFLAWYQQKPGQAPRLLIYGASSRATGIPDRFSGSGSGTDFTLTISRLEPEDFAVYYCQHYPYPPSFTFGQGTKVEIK
Result: 0.00376

Ask: I have this binder here, L3.PY/L3.KY/H3.YA (antibody, V domains shown, IgG) VH: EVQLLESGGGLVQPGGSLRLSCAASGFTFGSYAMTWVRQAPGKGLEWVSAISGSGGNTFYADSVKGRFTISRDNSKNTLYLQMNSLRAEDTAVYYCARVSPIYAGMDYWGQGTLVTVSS VL: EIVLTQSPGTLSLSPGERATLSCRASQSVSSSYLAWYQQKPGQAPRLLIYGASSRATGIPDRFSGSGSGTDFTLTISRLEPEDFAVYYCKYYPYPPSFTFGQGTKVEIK , and I need its recorded koff.
Result: 0.00428

Ask: If you can, please state the reported koff value of L3.PY/L3.KF/H2.DY (antibody, V domains shown, IgG) VH: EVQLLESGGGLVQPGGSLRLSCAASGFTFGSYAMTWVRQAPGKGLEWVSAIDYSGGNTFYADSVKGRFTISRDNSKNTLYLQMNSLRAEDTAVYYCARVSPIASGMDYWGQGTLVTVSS VL: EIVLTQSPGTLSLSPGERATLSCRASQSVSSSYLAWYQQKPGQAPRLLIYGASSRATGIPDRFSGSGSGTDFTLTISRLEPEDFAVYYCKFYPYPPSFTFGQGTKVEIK .
Result: 0.00368

Ask: Requested read-out: koff. Entry: L3.PY/L1.FF/H3.AE (antibody, V domains shown, IgG) VH: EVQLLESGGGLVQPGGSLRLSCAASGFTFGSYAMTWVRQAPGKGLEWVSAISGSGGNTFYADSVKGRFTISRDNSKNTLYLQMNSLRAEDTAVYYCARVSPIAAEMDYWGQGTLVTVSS VL: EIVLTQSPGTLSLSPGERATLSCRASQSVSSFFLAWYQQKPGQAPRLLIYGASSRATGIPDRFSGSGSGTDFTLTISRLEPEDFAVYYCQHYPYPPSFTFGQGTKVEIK
Result: 0.00501

Ask: Can you share its koff? I mean this binder: L3.PY/L1.FF/H3.YA (antibody, V domains shown, IgG) VH: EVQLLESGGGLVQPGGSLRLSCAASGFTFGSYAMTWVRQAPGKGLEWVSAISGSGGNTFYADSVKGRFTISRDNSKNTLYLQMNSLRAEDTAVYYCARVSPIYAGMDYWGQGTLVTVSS VL: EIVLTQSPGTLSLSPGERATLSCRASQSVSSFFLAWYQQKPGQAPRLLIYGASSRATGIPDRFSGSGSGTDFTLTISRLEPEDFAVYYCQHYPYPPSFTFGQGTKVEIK
Result: 0.00416

Ask: Param item = L3.PY/L3.KF/H3.YA (antibody, V domains shown, IgG) VH: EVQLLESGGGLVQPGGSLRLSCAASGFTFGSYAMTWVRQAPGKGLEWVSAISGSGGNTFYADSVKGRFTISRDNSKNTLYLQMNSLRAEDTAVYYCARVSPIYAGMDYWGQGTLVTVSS VL: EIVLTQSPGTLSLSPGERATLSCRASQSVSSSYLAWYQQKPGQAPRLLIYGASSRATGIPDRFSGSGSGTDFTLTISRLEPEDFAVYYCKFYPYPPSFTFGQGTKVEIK ; retrieve measured koff.
Result: 0.00796

Ask: # koff lookup, item L3.PY/L3.KY/H2.LT (antibody, V domains shown, IgG) VH: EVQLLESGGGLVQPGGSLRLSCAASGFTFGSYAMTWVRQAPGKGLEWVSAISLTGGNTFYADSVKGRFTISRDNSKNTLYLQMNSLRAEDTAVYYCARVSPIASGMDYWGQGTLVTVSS VL: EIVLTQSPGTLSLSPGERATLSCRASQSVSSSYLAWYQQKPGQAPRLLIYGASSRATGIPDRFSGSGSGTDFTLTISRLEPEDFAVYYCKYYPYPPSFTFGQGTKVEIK
Result: 0.00232

Ask: Request the reported koff associated with L3.PY/L3.KF/H2.YQ (antibody, V domains shown, IgG) VH: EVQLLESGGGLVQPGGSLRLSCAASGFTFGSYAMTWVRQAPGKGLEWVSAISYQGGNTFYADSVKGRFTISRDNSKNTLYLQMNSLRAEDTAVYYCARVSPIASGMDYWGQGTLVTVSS VL: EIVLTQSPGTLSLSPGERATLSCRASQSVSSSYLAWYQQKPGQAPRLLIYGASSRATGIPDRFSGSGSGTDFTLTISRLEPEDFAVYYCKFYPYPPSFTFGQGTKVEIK
Result: 0.00501

Origin of the recorded values: patent US20190241669A1
